Target: human DGKα (Homo sapiens (Human))
Assay: DGKα LIPGLO assay (extruded liposome substrate, ADP-Glo luminescence)
Type: biochemical
Settings: liposome assay; read-out: DGK alpha LIPGLO IC50
endpoint-label: IC50 (nM)
Answer with a number only, understood to be in nM.

Consider the worked cases shown below.
[[record]]
molecule = "CC(c1ccc(F)cc1)N1C[C@H](C)N(c2nc(=O)n(C)c3ccc(C#N)nc23)C[C@H]1C (single isomer, unassigned) [Example 128]"
target_or_system = "human DGKα (Homo sapiens (Human))"
display_unit = "nM"
result_number = 26

[[record]]
molecule = "CC(c1ccc(OC(F)(F)F)cc1F)N1C[C@H](C)N(c2nc(=O)n(C)c3ccc(C#N)nc23)C[C@H]1C (single isomer, unassigned) [Example 142]"
target_or_system = "human DGKα (Homo sapiens (Human))"
display_unit = "nM"
result_number = 52

[[record]]
molecule = "CC[C@@H]1CN(c2nc(=O)n(C)c3ccc(C#N)nc23)[C@@H](C)CN1C(c1ccc(OC(F)(F)F)cc1)c1cc(C2CC2)on1 (stereo partly drawn) [Example 99]"
target_or_system = "human DGKα (Homo sapiens (Human))"
display_unit = "nM"
result_number = 130


Input: Entry C[C@@H]1CN(c2nc(=O)n(C)c3ccc(C#N)nc23)[C@@H](C)CN1Cc1cc(F)c(F)cc1Cl has what IC50?
Output: 4260

Input: What value of IC50 has been recorded for this entry: C[C@@H]1CN(c2nc(=O)n(C)c3ccc(C#N)nc23)[C@@H](C)CN1C(c1ccc(F)cc1)c1nc(C(C)(C)C)no1 (single isomer, unassigned) [Example 108]
Output: 400

Input: IC50 lookup needed for CC[C@H]1CN(C(C)c2ccc3c(c2)OC(F)(F)O3)[C@H](CC)CN1c1nc(=O)n(C)c2ccc(C#N)nc12 (single isomer, unassigned) [Example 14] , thanks.
Output: 350

* * *

Target: UniProt:P23743
Assay: DGKα ADPGLO assay (detergent/lipid micelle substrate)
Type: biochemical
Conditions: truncated DGK alpha; read-out: DGK alpha ADPGLO (Truncated) IC50
Catalogue of pIC50 values
When answering, recall that pIC50 equals minus log10 of the concentration in mol/L, and write that number alone.

[[record]]
compound = "CC[C@@H]1CN(c2nc(=O)n(C)c3ccc(C#N)nc23)[C@@H](CC)CN1CC1CCC(F)(F)CC1 [Example 269]"
result_number = 6.24

[[record]]
compound = "CC[C@H]1CN(C(C)c2cccc(OC)n2)[C@H](CC)CN1c1nc(=O)n(C)c2ccc(C#N)nc12 (stereo partly shown) [Example 214]"
result_number = 5.70

[[record]]
compound = "CCC(c1ccc(C(F)(F)F)nc1)N1C[C@H](CC)N(c2nc(=O)n(C)c3ccc(C#N)nc23)C[C@H]1CC (stereo partly shown) [Example 224]"
result_number = 7.09


Could you now consider this next compound?
Input: Which pIC50 is listed for CC[C@H]1CN(C(c2ccc(OC(F)(F)F)cc2)c2cc(C3CC3)on2)[C@H](CC)CN1c1nc(=O)n(C)c2ccc(C#N)nc12 (single isomer, unassigned) [Example 43] ?
Output: 7.09

* * *

Reported values of IC50 for individual entries
Molecular target: human DGKα (Homo sapiens (Human), UniProt P23743)
Sequence (P23743 whole entry, looked up): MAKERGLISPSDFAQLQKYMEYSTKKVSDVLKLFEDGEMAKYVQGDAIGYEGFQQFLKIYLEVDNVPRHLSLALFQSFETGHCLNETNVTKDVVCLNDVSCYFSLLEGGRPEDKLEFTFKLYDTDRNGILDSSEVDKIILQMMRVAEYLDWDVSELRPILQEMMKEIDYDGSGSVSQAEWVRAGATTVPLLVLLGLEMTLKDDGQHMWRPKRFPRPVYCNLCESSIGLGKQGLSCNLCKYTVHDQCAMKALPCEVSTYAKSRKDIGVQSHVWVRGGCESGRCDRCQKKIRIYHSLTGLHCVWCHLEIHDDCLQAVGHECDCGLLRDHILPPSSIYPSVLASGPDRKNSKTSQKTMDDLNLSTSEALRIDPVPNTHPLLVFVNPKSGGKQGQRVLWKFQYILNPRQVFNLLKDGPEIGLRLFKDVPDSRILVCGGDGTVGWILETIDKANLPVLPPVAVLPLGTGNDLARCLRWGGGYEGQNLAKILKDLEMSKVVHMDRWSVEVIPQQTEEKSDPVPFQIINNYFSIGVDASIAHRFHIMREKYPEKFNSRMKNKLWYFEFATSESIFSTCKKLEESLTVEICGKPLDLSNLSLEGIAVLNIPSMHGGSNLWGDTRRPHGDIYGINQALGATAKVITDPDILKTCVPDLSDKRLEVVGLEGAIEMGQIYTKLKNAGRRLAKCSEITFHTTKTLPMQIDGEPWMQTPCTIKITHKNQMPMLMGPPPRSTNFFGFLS
Test: DGKα ADPGLO assay (detergent/lipid micelle substrate)
Type: biochemical
Conditions: ADPGLO assay; read-out: DGK alpha ADPGLO IC50
Number first, unit second: that is the form wanted.

[[record]]
molecule = "CC[C@H]1CN(C(C)c2ccc(C(F)(F)F)cc2)[C@H](CC)CN1c1nc(=O)n(C)c2ccc(OC(F)F)nc12 (stereo partly shown) [Example 444]"
result = "400 nM"


Input: Report IC50 for COC[C@H]1CN(C(C)c2ccc(C(F)(F)F)cc2)[C@H](C)CN1c1nc(=O)n(C)c2ccc(C#N)nc12 (single isomer, unassigned) [Example 409] tested on human DGKα (Homo sapiens (Human), UniProt P23743).
Output: 72 nM

Input: Give the reported IC50 for CCC(c1ccc(F)c(F)c1)N1C[C@H](C)N(c2nc(=O)n(C)c3ccc(C#N)nc23)C[C@H]1CC (stereo partly shown) [Example 319] (system: human DGKα (Homo sapiens (Human), UniProt P23743)).
Output: 52 nM

Input: Request body: readout IC50, system human DGKα (Homo sapiens (Human), UniProt P23743), query CC[C@H]1CN(C(C)c2ccc(C(F)(F)F)cc2)[C@H](CC)CN1c1nc(=O)n(C)c2ccc(C(F)F)nc12 (stereo partly shown) [Example 439] . Return the value.
Output: 360 nM

Input: Hi! What's the reported IC50 for CC[C@H]1CN(C(C)c2ccc(C(F)(F)F)cc2)[C@H](CC)CN1c1nc(=O)n(C)c2ccc(C(F)F)nc12 (stereo partly shown) [Example 440] on human DGKα (Homo sapiens (Human), UniProt P23743)?
Output: 1140 nM

Input: Provide value of IC50 for this record tested with human DGKα (Homo sapiens (Human), UniProt P23743): CCOc1ccc2c(n1)c(N1C[C@@H](CC)N(C(CC)c3ccc(C(F)(F)F)cc3)C[C@@H]1CC)nc(=O)n2C (stereo partly shown) [Example 438]
Output: 175000 nM

Input: Please provide the recorded IC50 for CCC(c1ccc(OCCC2CC2)cc1)N1C[C@H](C)N(c2nc(=O)n(C)c3ccc(C#N)nc23)C[C@H]1CC (stereo partly shown) [Example 339] , tested on human DGKα (Homo sapiens (Human), UniProt P23743).
Output: 75 nM

* * *

Biological target: human DGKα (Homo sapiens (Human), UniProt P23743)
Assay: DGKα LIPGLO assay (extruded liposome substrate, ADP-Glo luminescence)
Type: biochemical
Settings: liposome assay; read-out: DGK alpha LIPGLO IC50
endpoint-label: pIC50
Please note pIC50 is a logarithmic value: minus log10 of concentration in mol/L. Answer with that number alone.

[[record]]
compound = "CCC(c1ccc(OC(F)(F)F)cc1F)N1C[C@H](C)N(c2nc(=O)n(C)c3ccc(C#N)nc23)C[C@H]1CC (single isomer, unassigned) [Example 86]"
endpoint_label = "pIC50"
result_number = 5.53

[[record]]
compound = "COC[C@@H]1CN(c2nc(=O)n(C)c3ccc(C#N)nc23)[C@@H](C)CN1C(C)c1ccc(OC(F)(F)F)cc1 (single isomer, unassigned) [Example 176]"
endpoint_label = "pIC50"
result_number = 6.74


Now for another entry.
Input: Reported pIC50 for CCC(c1ccc(C(F)(F)F)cc1)N1C[C@H](C)N(c2nc(=O)n(C)c3ccc(C#N)nc23)C[C@H]1CC (single isomer, unassigned) [Example 89] : what is it?
Output: 7.26

* * *

Target: human DGKα (Homo sapiens (Human), UniProt P23743)
Test: DGKα LIPGLO assay (extruded liposome substrate, ADP-Glo luminescence)
Format: biochemical
Conditions: liposome assay; read-out: DGK alpha LIPGLO IC50
// reported pIC50 for each item listed
On this scale, pIC50 is minus log10 of a concentration expressed in M (mol/L).

Input: Data request, read-out pIC50, for CC(c1ccc(C(F)(F)F)cc1F)N1C[C@H](C)N(c2nc(=O)n(C)c3ccc(C#N)nc23)C[C@H]1C (single isomer, unassigned) [Example 150]
Output: 6.46

Input: Fill in the blank: the reported pIC50 of CC(c1ccc(OC(F)(F)F)cc1)N1C[C@H](C)N(c2nc(=O)n(C)c3ccc(C#N)nc23)C[C@H]1CO (single isomer, unassigned) [Example 183] is ____.
Output: 7.08

Input: Which pIC50 is reported for this molecule? C[C@@H]1CN(c2nc(=O)n(C)c3ccc(C#N)nc23)[C@@H](C)CN1C(c1ccc(F)cc1)c1ccon1 (single isomer, unassigned) [Example 163]
Output: 7.42

Input: // lookup pIC50 for CC[C@@H]1CN(c2nc(=O)n(C)c3ccc(C#N)nc23)[C@@H](C)CN1C(C)c1ccc2c(c1)OC(F)(F)O2 (single isomer, unassigned) [Example 72]
Output: 5.82

Input: Reported pIC50 for CC[C@@H]1CN(c2nc(=O)n(C)c3ccc(C#N)nc23)[C@@H](C)CN1C(C)c1ccc(OC(C)C)cc1 (single isomer, unassigned) [Example 52] : what is it?
Output: 6.64

Input: Item under review: C[C@@H]1CN(c2nc(=O)n(C)c3ccc(C#N)nc23)[C@@H](C)CN1C(c1ccc(F)cc1)c1nc(C2CC2)no1 (single isomer, unassigned) [Example 106] . Reported pIC50?
Output: 7.41

* * *

Target: human DGKα (Homo sapiens (Human))
Assay: DGKα ADPGLO assay (detergent/lipid micelle substrate)
Format: biochemical
Conditions: truncated DGK alpha; read-out: DGK alpha ADPGLO (Truncated) IC50
pIC50 listing for selected compounds.
Hey, just a heads up that pIC50 is the negative log base 10 of the concentration in molar.

[[record]]
compound = "CCC(c1ccc(OCC2CC2)cc1F)N1C[C@H](CC)N(c2nc(=O)n(C)c3ccc(C#N)nc23)C[C@H]1CC (stereo partly shown) [Example 198]"
result_number = 7.43

[[record]]
compound = "CCC(c1ccc(Cl)cc1F)N1C[C@H](CC)N(c2nc(=O)n(C)c3ccc(C#N)nc23)C[C@H]1CC (stereo partly shown) [Example 239]"
result_number = 7.03

[[record]]
compound = "CC[C@H]1CN(C(C)c2ccc(C(=O)OC)cc2)[C@H](CC)CN1c1nc(=O)n(C)c2ccc(C#N)nc12 (stereo partly shown) [Example 266]"
result_number = 7.08


Input: Query: pIC50; subject: CC[C@@H]1CN(c2nc(=O)n(C)c3ccc(C#N)nc23)[C@@H](C)CN1C(c1ccc(OC(F)(F)F)cc1)c1ccccn1 (single isomer, unassigned) [Example 94]
Output: 7.80

Input: Endpoint output: pIC50 of CC[C@@H]1CN(c2nc(=O)n(C)c3ccc(C#N)nc23)[C@@H](C)CN1C(c1ccc(Cl)cc1)c1ccccn1 (single isomer, unassigned) . Value?
Output: 7.02

Input: State the recorded pIC50 for this entry: CCC(c1ccc(OC(F)(F)F)cc1F)N1C[C@H](C)N(c2nc(=O)n(C)c3ccc(C#N)nc23)C[C@H]1CC (single isomer, unassigned) [Example 86]
Output: 6.38

Input: Look up pIC50 for this compound: CC[C@H]1CN(C(C)c2ccc3oc(C4CC4)nc3c2)[C@H](CC)CN1c1nc(=O)n(C)c2ccc(C#N)nc12 (stereo partly shown) [Example 254]
Output: 5.55

Input: Quick check: pIC50 of CCC(c1ccc(C2CC2)cc1)N1C[C@H](C)N(c2nc(=O)n(C)c3ccc(C#N)nc23)C[C@H]1CC (stereo partly shown) [Example 300] ?
Output: 7.89

Input: Suppose we examine the compound CC[C@@H]1CN(c2nc(=O)n(C)c3ccc(C#N)nc23)[C@@H](CC)CN1Cc1ccc(C(F)(F)F)cc1F ; what pIC50 value has been reported?
Output: 6.92

Input: Quick one: pIC50 for CC[C@H]1CN(C(C)c2ccc(CN3CCC(F)(F)CC3)cc2)[C@H](CC)CN1c1nc(=O)n(C)c2ccc(C#N)nc12 (stereo partly shown) [Example 277] ?
Output: 6.80

Input: What value of pIC50 has been reported for the following compound? CCOC(=O)[C@H]1C[C@@H]1Oc1ccc(C(C)N2C[C@H](CC)N(c3nc(=O)n(C)c4ccc(C#N)nc34)C[C@H]2CC)cc1 (stereo partly shown)
Output: 5.66

Input: Entry CC[C@H]1CN(C(C)c2ccc(C(F)(F)F)cc2F)[C@H](CC)CN1c1nc(=O)n(C)c2ccc(C#N)nc12 (single isomer, unassigned) [Example 26] : reported pIC50 = ?
Output: 7.54

Input: Need pIC50 of CC[C@H]1CN(C(C)c2ccc(CN3CCC(O)CC3)cc2)[C@H](CC)CN1c1nc(=O)n(C)c2ccc(C#N)nc12 (stereo partly shown) [Example 285] , thanks.
Output: 5.39

Input: I am curious: what pIC50 value has been reported for CC[C@H]1CN(C(C)c2cnc(N3CCOCC3)nc2)[C@H](CC)CN1c1nc(=O)n(C)c2ccc(C#N)nc12 (stereo partly shown) [Example 207] ?
Output: 6.21

Input: Would you kindly share the measured pIC50 for CCC(c1ccc(OC(F)(F)F)cc1F)N1C[C@H](C)N(c2nc(=O)n(C)c3ccc(C#N)nc23)C[C@H]1CC (single isomer, unassigned) [Example 85] ?
Output: 7.18

Input: What does the data say about its pIC50? Entry: CC[C@H]1CN(C(C)c2ccc3oc(=O)n(C)c3c2)[C@H](CC)CN1c1nc(=O)n(C)c2ccc(C#N)nc12 (stereo partly shown) [Example 202]
Output: 6.44

Input: Name the reported pIC50 value associated with the compound CC[C@H]1CN(C(C)c2ccc(CN3CCN(C)C(=O)C3)cc2)[C@H](CC)CN1c1nc(=O)n(C)c2ccc(C#N)nc12 (stereo partly shown) [Example 288]
Output: 5.39

Input: Entry CC[C@H]1CN(C(C)c2ccc(CO)cc2)[C@H](CC)CN1c1nc(=O)n(C)c2ccc(C#N)nc12 (stereo partly shown) [Example 270] has what pIC50?
Output: 8.10

Input: Please give the measured pIC50 for this compound: CCC(c1ccc(C(C)(C)C#N)cc1)N1C[C@H](CC)N(c2nc(=O)n(C)c3ccc(C#N)nc23)C[C@H]1CC (stereo partly shown) [Example 252]
Output: 6.57

Input: Give its pIC50 value. Item: CC[C@H]1CN(C(c2ccc(F)cc2)c2csc(C(F)(F)F)n2)[C@H](CC)CN1c1nc(=O)n(C)c2ccc(C#N)nc12 (stereo partly shown) [Example 210]
Output: 7.34

Input: Looking for the measured pIC50 of CC[C@H]1CN(C(C)c2ccc(CN3C[C@@H](C)O[C@@H](C)C3)cc2)[C@H](CC)CN1c1nc(=O)n(C)c2ccc(C#N)nc12 (stereo partly shown) [Example 291] , can you help?
Output: 6.96

Input: What pIC50 value was documented for this compound, CC[C@@H]1CN(c2nc(=O)n(C)c3ccc(C#N)nc23)[C@@H](CC)CN1Cc1ccc(OCC2CC2)cc1 ?
Output: 6.57
